System: LmxCLK1 (Leishmania mexicana)
Assay Notes: biochemical
Format: binding
Condition Notes: DSF, 10 µM compound, 2 µM LmxCLK1, Run 2; read-out: ΔTm Run 2
Where a name gives a salt, the structure may show the parent alone.
Endpoint: ΔTm at 10 µM (°C)
Give bare numbers, in °C.

* Cn1cnc2c(F)c(Nc3ccc(Br)cc3Cl)c(C(=O)NOCCO)cc21 | 0.3
* Cc1c(NC(=O)c2ccc(C(C)(C)C)cc2)cccc1-c1cn(C)c(=O)c(Nc2ccc(C(=O)N3CCOCC3)cc2)n1 | -0.4
* C[C@@H]1CN(CC(=O)Nc2ccc3c(c2)Cc2cccc(-c4cc(=O)cc(N5CCOCC5)o4)c2S3)C[C@H](C)O1 | -0.2
* CCc1nc(-c2cccc(C)c2)c(-c2ccnc(NC(=O)c3ccccc3)c2)s1 | 0.8
* Cc1[nH]c(/C=C2\C(=O)Nc3ccc(S(=O)(=O)N(C)c4cccc(Cl)c4)cc32)c(C)c1C(=O)N1CCN(C)CC1 | -0.2
* CC(C)NC[C@@H](C(=O)N1CCN(c2ncnc3c2[C@H](C)C[C@H]3O)CC1)c1ccc(Cl)cc1 | 0
* Cc1ccc2nc(NCCN)c3ncc(C)n3c2c1 | -0.3
* OCCn1cc(-c2ccc3c(c2)CC/C3=N\O)c(-c2ccncc2)n1 | -0.2
* O=C(NCCCNc1nc(Nc2cccc(NC(=O)N3CCCC3)c2)ncc1I)c1cccs1 | 0.4
* C[C@@H]1COC(Nc2ccc3ncnc(Nc4ccc(OCc5nccs5)c(Cl)c4)c3c2)=N1 | 0

// each listed molecule needs a value for ΔTm at 10 µM
1. NC(=O)c1ccc(N(C(N)=O)c2c(F)cccc2F)nc1-c1ccc(F)cc1F
2. CCNc1nc(Nc2cc(F)c(C(=O)N3CCOCC3)cc2OC)ncc1C(F)(F)F
3. CS(=O)(=O)c1ccc(-c2cnc(N)c(C(=O)Nc3ccccc3)n2)cc1

A:
[-0.2, -0.5, -0.5]

Lab note: each molecule below needs its ΔTm at 10 µM filled in.
1. CCN(CC)CCNC(=O)c1c(C)[nH]c(/C=C2\C(=O)Nc3ccc(F)cc32)c1C [Sunitinib Malate]
2. O=C(Nc1c[nH]nc1-c1nc2ccc(CN3CCOCC3)cc2[nH]1)NC1CC1

A:
0.2
2.1

For each of the items listed, what is its ΔTm at 10 µM?
1. CNCc1ccc(-c2cc(-c3nc(-c4ccc(S(=O)(=O)C(C)C)cc4)cnc3N)on2)cc1
2. C[C@H](NC(=O)/C(C#N)=C/c1cccc(Br)n1)c1ccccc1
3. CNC(=O)c1cc(Oc2ccc(NC(=O)Nc3ccc(Cl)c(C(F)(F)F)c3)cc2)ccn1 [Sorafenib Tosylate]
4. Cc1nc(Nc2ncc(C(=O)Nc3c(C)cccc3Cl)s2)cc(N2CCN(CCO)CC2)n1
5. CCN1CCN(Cc2ccc(Nc3ncc(F)c(-c4cc(F)c5nc(C)n(C(C)C)c5c4)n3)nc2)CC1
6. CC(C)(C)c1cc(NC(=O)Nc2ccc(-c3cn4c(n3)sc3cc(OCCN5CCOCC5)ccc34)cc2)no1

A:
1: 0.1; 2: 0; 3: 0.2; 4: -0.2; 5: 2.1; 6: 0.2

###

System: NLuc::LmxCLK1 (Leishmania mexicana, UniProt E9AMP2)
Assay Notes: cell-based
Assay type: cell-based
Condition Notes: read-out: Target occupancy Run 2
Could you please report measured receptor occupancy at 10 µM for the items listed next?
One number for each entry, in %.

Examples with answers:
- CCS(=O)(=O)c1cccc(-c2cc(C(=O)NC3CCN(C)CC3)c(C)c3[nH]c4ncc(C)cc4c23)c1 [TAK-901]: -9.1
- N#CC1(c2ccc(NC(=O)c3cccnc3NCc3ccncc3)cc2)CCCC1 [Apatinib]: -7.8
- CCNc1nc(Nc2cc(F)c(C(=O)N3CCOCC3)cc2OC)ncc1C(F)(F)F [GNE-7915]: 3.1
- Cn1cc(C2=C(c3ccc(Cl)cc3Cl)C(=O)NC2=O)c2ccccc21 [SB216763]: -9.6
- O=C(Nc1nc2cccc(-c3ccc(CN4CCS(=O)(=O)CC4)cc3)n2n1)C1CC1 [Filgotinib (GLPG0634)]: -21.6
- C[C@H](NC(=O)/C(C#N)=C/c1cccc(Br)n1)c1ccccc1 [WP1066]: -18.3

I would be grateful if you could provide receptor occupancy at 10 µM for each of the following entries.
1. CS(=O)(=O)c1ccc(-c2cnc(N)c(C(=O)Nc3ccccc3)n2)cc1 [VE-821]
2. Cc1c(Cn2c(C)nc3c(C(=O)O)cc(N4CCOCC4)cc32)cccc1C(F)(F)F [GSK2636771]
3. C=CC(=O)Nc1ccc2ncnc(Nc3ccc(OCc4cccc(F)c4)c(Cl)c3)c2c1 [AST-1306]
4. C[C@H]1[C@H](C)CC[C@]2(C(=O)O)CC[C@]3(C)C(=CC[C@@H]4[C@@]5(C)C[C@@H](O)[C@H](O)[C@@](C)(CO)[C@@H]5CC[C@]43C)[C@H]12 [Asiatic Acid]
5. COc1ccc(Cl)c(Nc2nc3ccccc3nc2NS(=O)(=O)c2cccc(NC(=O)C(C)(C)N)c2)c1 [XL147]
6. CN(C[C@@H]1COCCO1)S(=O)(=O)Nc1ccc2ccc3ncc(-c4cnn(C)c4)cc3c(=O)c2c1 [MK-2461]
7. CC(C)NC[C@@H](C(=O)N1CCN(c2ncnc3c2[C@H](C)C[C@H]3O)CC1)c1ccc(Cl)cc1 [GDC-0068]
8. COc1cc2ncnc(Oc3cccc(NC(=O)Nc4cc(C(C)(C)C(F)(F)F)on4)c3)c2cc1OC [CEP-32496]

A:
1: 5.3; 2: -7.3; 3: -10.7; 4: -17.4; 5: -1.7; 6: 3.8; 7: -5.5; 8: -5.2

Below are 2 molecules. Give each one its receptor occupancy at 10 µM.
1. COc1cccc2cc(-c3nc([C@H]4CC[C@H](C(=O)O)CC4)n4ncnc(N)c34)[nH]c12 [OSI-027]
2. Cn1cnc(N)c2ncnc1-2 [3-Methyladenine]

A:
[-23.2, -7.1]

###

System: LmxCLK1 (Leishmania mexicana)
Assay Notes: biochemical
Assay type: binding
Condition Notes: DSF, 10 µM compound, 2 µM LmxCLK1, mean of two runs; read-out: ΔTm Average
Response key: fulfilled means ΔTm at 10 µM >= 0.1 °C; not fulfilled means ΔTm at 10 µM < 0.1 °C.

Examples with answers:
• CCN(CC)CCNC(=O)c1c(C)[nH]c(/C=C2\C(=O)Nc3ccc(F)cc32)c1C [Sunitinib Malate] = fulfilled
• Cn1cnc2c(F)c(Nc3ccc(Br)cc3Cl)c(C(=O)NOCCO)cc21 = fulfilled
• C=CC(=O)Nc1ccc2ncnc(Nc3ccc(OCc4cccc(F)c4)c(Cl)c3)c2c1 = not fulfilled

Q: Can `CC(C)(C)Cn1c(N)nc2ccc(-c3[nH]c(C(C)(C)C)nc3-c3ccc(F)cc3)nc21` be said to have ΔTm at 10 µM at or above 0.1 °C?
A: not fulfilled

###

System: LmxCLK1 (Leishmania mexicana, UniProt E9AMP2)
Sequence (E9AMP2 1-422): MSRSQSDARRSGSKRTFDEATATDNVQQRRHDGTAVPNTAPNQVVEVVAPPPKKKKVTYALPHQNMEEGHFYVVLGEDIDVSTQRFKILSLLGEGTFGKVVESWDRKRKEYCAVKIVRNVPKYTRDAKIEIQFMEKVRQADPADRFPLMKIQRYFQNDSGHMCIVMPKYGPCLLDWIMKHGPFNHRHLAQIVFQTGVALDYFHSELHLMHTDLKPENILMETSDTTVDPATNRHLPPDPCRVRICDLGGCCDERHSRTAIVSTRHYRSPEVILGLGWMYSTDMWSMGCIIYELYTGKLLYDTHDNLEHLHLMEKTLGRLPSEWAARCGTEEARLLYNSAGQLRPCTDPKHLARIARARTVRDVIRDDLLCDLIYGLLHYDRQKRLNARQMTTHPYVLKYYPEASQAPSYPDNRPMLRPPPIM
Assay Notes: HTRF (TR-FRET) enzymatic inhibition assay
Format: biochemical
Condition Notes: purified LmxCLK1, 30-min pre-incubation, 66 µM ATP; read-out: IC50 enzymatic inhibition of LmxCLK1
Endpoint: pIC50
One number for each entry, as −log10 of the molar value.

* C=CC(=O)Nc1cccc(Sc2nc(Nc3ccc(N4CCN(C)CC4)cc3)ncc2Cl)c1 [WZ8040] | 6.69

Read the next record carefully.
Q: Would you mind telling me what pIC50 value was observed for C=CC(=O)Nc1cccc(Oc2nc(Nc3ccc(N4CCN(C)CC4)cc3)ncc2Cl)c1 [WZ3146] ?
A: 6.47

###

System: LmxCLK1 (Leishmania mexicana)
Assay Notes: biochemical
Assay type: binding
Condition Notes: DSF, 10 µM compound, 2 µM LmxCLK1, Run 1
Endpoint: ΔTm Run 1
Answer format: value, then unit.

The following molecules have reported results that may help.
• CC(C)(C)c1nc(-c2cccc(NS(=O)(=O)c3c(F)cccc3F)c2F)c(-c2ccnc(N)n2)s1 = -0.2 °C
• CCN(CCO)CCCOc1ccc2c(Nc3cc(CC(=O)Nc4cccc(F)c4)[nH]n3)ncnc2c1 = 0.4 °C
• Cn1c(Nc2ccc(C(F)(F)F)cc2)nc2cc(Oc3ccnc(-c4ncc(C(F)(F)F)[nH]4)c3)ccc21 = -0.1 °C

Record ΔTm Run 1 for all entries; do not skip any.
1. N#C/C(=C/c1ccc(O)c(O)c1)C(=O)NCc1ccccc1
2. COc1ccc(C(=O)Nc2sc3c(c2C(N)=O)CCCC3)cc1OC
3. COc1cc(Nc2ncc(F)c(Nc3ccc4c(n3)NC(=O)C(C)(C)O4)n2)cc(OC)c1OC [R406 (free base)]

A:
["0.1 °C", "0.0 °C", "0.0 °C"]
